target entity: estrogen receptor (Rattus norvegicus)
Construct: from tissue; host or cells: uterus of matured female rat, homogenate supernatant (105,000 x G)
Sequence (P06211 whole entry): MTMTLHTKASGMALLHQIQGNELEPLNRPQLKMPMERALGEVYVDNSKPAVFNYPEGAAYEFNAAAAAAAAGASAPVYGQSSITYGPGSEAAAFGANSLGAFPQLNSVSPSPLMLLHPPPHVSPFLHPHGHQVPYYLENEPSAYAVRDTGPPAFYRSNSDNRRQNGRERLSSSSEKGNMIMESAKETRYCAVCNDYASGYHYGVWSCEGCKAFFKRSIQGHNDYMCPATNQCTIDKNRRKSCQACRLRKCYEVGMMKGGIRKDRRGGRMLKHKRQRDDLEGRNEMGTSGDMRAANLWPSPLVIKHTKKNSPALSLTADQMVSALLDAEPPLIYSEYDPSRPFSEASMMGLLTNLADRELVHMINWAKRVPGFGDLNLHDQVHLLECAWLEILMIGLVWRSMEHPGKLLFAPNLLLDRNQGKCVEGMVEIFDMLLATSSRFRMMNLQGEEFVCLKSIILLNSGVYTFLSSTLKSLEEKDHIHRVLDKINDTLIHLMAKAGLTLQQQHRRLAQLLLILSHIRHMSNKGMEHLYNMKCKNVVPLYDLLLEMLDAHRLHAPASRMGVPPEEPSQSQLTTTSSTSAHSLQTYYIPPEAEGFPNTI
experiment: estrogen receptor affinity by exchange curve method ([3H]-estradiol displacement, membrane specimen from rat uterus)
Assay type: binding
recorded conditions: evaluated sample itself (bisphenols, phenols); concentration necessary to exchange 50% of estrogen bound receptor; read-out: IC50 (converted)
Procedure: The smaller the numeral value, the higher is affinity between a chemical substance and estrogen receptor, i.e., the higher is so-called endocrine disruptor. […] 1 ml of the above-prepared supernatant liquid of homoginate containing estrogen receptor was added to each tube and softly stirred and then each tube was capped to incubate at 4 °C for 20 hours. […] Each the glass filter paper was dried and then each radioactivity was measured with a liquid scintillation counter.
Please respond with reported IC50 for every item in the list.
Give the value, in units of µM, as a plain number.

q: Name the reported IC50 value associated with the molecule CC1(C)CC2(CC(C)(C)c3ccc(O)cc32)c2cc(O)ccc21
a: 2.92

q: // repeat for CC(c1ccccc1)(c1ccc(O)cc1)c1ccc(O)cc1 [BPAP, 1,1-bis(4-hydroxyphenyl)-1-phenylethane] and report
a: 1.72

q: // repeat for Oc1ccc(Cc2ccc(O)cc2)cc1 [BPF, bis(4-hydroxyphenyl)methane] and report
a: 6.99

q: // repeat for CC(C)(c1ccc(O)cc1)c1ccc(O)cc1 [BPA, 2,2-bis(4-hydroxyphenyl) propane] and report
a: 32
